Measured values drawn from PubChem BioAssay AID2060498 for this set.

System: 171881-019-R-J1-PDC tumor spheroids, viability;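 further: spheroids exposed to compounds for 7 days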
Test: Anticancer human tumor 171881-019-R-J1-PDC patient-derived invasive breast carcinoma cell line growth inhibition [GQUAD]
Conditions: curve of first compound; second compound 3.16 µM; spheroids with HUVEC and MSC
IC50 values, listed per item

The cases that follow already have their IC50 on record.
COc1ccc([C@@H](O)c2cc(-c3ncnc4cc(N5CCOCC5)ccc34)c(F)cc2Cl)nn1 + Cc1cnc(CNC(=O)c2c(=O)c3ccc(N4CCCN(C)CC4)nc3n3c2sc2ccccc23)cn1	112 nM
CC(C)(O)C1CCC(Nc2ccc3ncc(-c4cccc(C(F)(F)F)c4)n3n2)CC1 (stereo unspecified) + Cc1cnc(CNC(=O)c2c(=O)c3ccc(N4CCCN(C)CC4)nc3n3c2sc2ccccc23)cn1	1070 nM
O=C(c1cc(Cc2n[nH]c(=O)c3ccccc23)ccc1F)N1CCN(C(=O)C2CC2)CC1 + Cc1cnc(CNC(=O)c2c(=O)c3ccc(N4CCCN(C)CC4)nc3n3c2sc2ccccc23)cn1	> 10000 nM

Query: Indicate its recorded IC50; the molecule in question is Nc1ccn(C2OC(CO)C(O)C2(F)F)c(=O)n1 (stereo unspecified) + Cc1cnc(CNC(=O)c2c(=O)c3ccc(N4CCCN(C)CC4)nc3n3c2sc2ccccc23)cn1
Reply: < 31.6 nM

Query: Indicate its recorded IC50; the molecule in question is CCc1c2c(nc3ccc(O)cc13)-c1cc3c(c(=O)n1C2)COC(=O)[C@]3(O)CC + Cc1[nH]c2ccc(F)cc2c1-c1nc2c3cccnc3c3ncccc3c2[nH]1
Reply: < 0.999 nM

Query: Indicate its recorded IC50; the molecule in question is COc1cccc2c1C(=O)c1c(O)c3c(c(O)c1C2=O)CC(O)(C(=O)CO)CC3OC1CC(N)C(O)C(C)O1 (stereo unspecified) + CN(C)c1ccc(Nc2c3ccc(NC(=O)CCN4CCCC4)cc3nc3cc(NC(=O)CCN4CCCC4)ccc23)cc1
Reply: < 31.6 nM

Query: Indicate its recorded IC50; the molecule in question is Cn1ncnc1[C@H]1c2n[nH]c(=O)c3cc(F)cc(c23)N[C@@H]1c1ccc(F)cc1 + Cc1cnc(CNC(=O)c2c(=O)c3ccc(N4CCCN(C)CC4)nc3n3c2sc2ccccc23)cn1
Reply: > 316 nM

Query: Indicate its recorded IC50; the molecule in question is Cc1[nH]c2ccccc2c1CCNCc1ccc(/C=C/C(=O)NO)cc1 + Cc1cnc(CNC(=O)c2c(=O)c3ccc(N4CCCN(C)CC4)nc3n3c2sc2ccccc23)cn1
Reply: 37.2 nM

Query: Indicate its recorded IC50; the molecule in question is CC(C)n1c(=O)n(C)c2cnc3cc(F)c(-c4ccc(OCCCN5CCCCC5)nc4)cc3c21 + Cc1[nH]c2ccc(F)cc2c1-c1nc2c3cccnc3c3ncccc3c2[nH]1
Reply: < 31.6 nM

Query: Indicate its recorded IC50; the molecule in question is COc1cccc2c1C(=O)c1c(O)c3c(c(O)c1C2=O)CC(O)(C(=O)CO)CC3OC1CC(N)C(O)C(C)O1 (stereo unspecified) + Cc1cnc(CNC(=O)c2c(=O)c3ccc(N4CCCN(C)CC4)nc3n3c2sc2ccccc23)cn1
Reply: 139 nM

Query: Indicate its recorded IC50; the molecule in question is CC1COCCN1c1cc(C2(S(C)(=N)=O)CC2)nc(-c2ccnc3[nH]ccc23)n1 (stereo unspecified) + Cc1cnc(CNC(=O)c2c(=O)c3ccc(N4CCCN(C)CC4)nc3n3c2sc2ccccc23)cn1
Reply: 1040 nM

Query: Indicate its recorded IC50; the molecule in question is Cn1ncnc1[C@H]1c2n[nH]c(=O)c3cc(F)cc(c23)N[C@@H]1c1ccc(F)cc1 + CN(C)c1ccc(Nc2c3ccc(NC(=O)CCN4CCCC4)cc3nc3cc(NC(=O)CCN4CCCC4)ccc23)cc1
Reply: < 0.999 nM

Query: Indicate its recorded IC50; the molecule in question is C=CC(=O)N1CCN(c2nc(=O)n(-c3c(C)ccnc3C(C)C)c3nc(-c4c(O)cccc4F)c(F)cc23)C(C)C1 (stereo unspecified) + Cc1[nH]c2ccc(F)cc2c1-c1nc2c3cccnc3c3ncccc3c2[nH]1
Reply: < 31.6 nM

Query: Indicate its recorded IC50; the molecule in question is CC(=O)O[C@H]1C(=O)[C@@]2(C)[C@H]([C@H](OC(=O)c3ccccc3)[C@]3(O)C[C@H](OC(=O)[C@H](O)[C@@H](NC(=O)c4ccccc4)c4ccccc4)C(C)=C1C3(C)C)[C@]1(OC(C)=O)CO[C@@H]1C[C@@H]2O + Cc1[nH]c2ccc(F)cc2c1-c1nc2c3cccnc3c3ncccc3c2[nH]1
Reply: < 31.6 nM

Query: Indicate its recorded IC50; the molecule in question is CC1COCCN1c1cc(C2(O)CC3CCC(C2)O3)c2cnn(-c3ccn[nH]3)c2n1 (stereo unspecified) + CN(C)c1ccc(Nc2c3ccc(NC(=O)CCN4CCCC4)cc3nc3cc(NC(=O)CCN4CCCC4)ccc23)cc1
Reply: < 31.6 nM

Query: Indicate its recorded IC50; the molecule in question is O=C(NO)c1cnc(N2CCN(S(=O)(=O)c3ccc4ccccc4c3)CC2)nc1 + Cc1cnc(CNC(=O)c2c(=O)c3ccc(N4CCCN(C)CC4)nc3n3c2sc2ccccc23)cn1
Reply: 118 nM

Query: Indicate its recorded IC50; the molecule in question is CCc1c2c(nc3ccc(O)cc13)-c1cc3c(c(=O)n1C2)COC(=O)[C@]3(O)CC + Cc1cnc(CNC(=O)c2c(=O)c3ccc(N4CCCN(C)CC4)nc3n3c2sc2ccccc23)cn1
Reply: 7.26 nM

Query: Indicate its recorded IC50; the molecule in question is Nc1ccn(C2OC(CO)C(O)C2(F)F)c(=O)n1 (stereo unspecified) + Cc1[nH]c2ccc(F)cc2c1-c1nc2c3cccnc3c3ncccc3c2[nH]1
Reply: < 31.6 nM

Query: Indicate its recorded IC50; the molecule in question is Nc1ccn(C2OC(CO)C(O)C2(F)F)c(=O)n1 (stereo unspecified) + CN(C)c1ccc(Nc2c3ccc(NC(=O)CCN4CCCC4)cc3nc3cc(NC(=O)CCN4CCCC4)ccc23)cc1
Reply: < 31.6 nM

Query: Indicate its recorded IC50; the molecule in question is C=CC(=O)N1CCN(c2nc(=O)n(-c3c(C)ccnc3C(C)C)c3nc(-c4c(O)cccc4F)c(F)cc23)C(C)C1 (stereo unspecified) + Cc1cnc(CNC(=O)c2c(=O)c3ccc(N4CCCN(C)CC4)nc3n3c2sc2ccccc23)cn1
Reply: > 10000 nM

Query: Indicate its recorded IC50; the molecule in question is O=C(c1cc(Cc2n[nH]c(=O)c3ccccc23)ccc1F)N1CCN(C(=O)C2CC2)CC1 + CN(C)c1ccc(Nc2c3ccc(NC(=O)CCN4CCCC4)cc3nc3cc(NC(=O)CCN4CCCC4)ccc23)cc1
Reply: < 31.6 nM
